B1: BTBD10 (parent)
chain: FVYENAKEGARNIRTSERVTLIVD

- Variants of: B1
- Protocol Summary: protein stability index of a GFP-peptide fusion (GPS, HEK-293T) (PSI 1-6); higher = more stable;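 also: lentivirally expressed fusions sorted by FACS into six bins by GFP to DsRed ratio, PSI derived from sequencing read proportions per bin multiplied by bin number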
- Condition Description: c terminus: a fixed tail appended
Endpoint Label: protein stability index

| Mutation Notation | protein stability index |
| --- | --- |
| N5W | 3.23 |
| R14A | 2.17 |
| I22L | 1.72 |
| T15Q | 2.68 |

Inquiry: May I ask what protein stability index has been recorded for T15A ?
Reply text: 2.26

Inquiry: Record: D24Y
Reply text: 2.01

Inquiry: Record: V19L
Reply text: 2

Inquiry: Record: Y3W
Reply text: 2.19

Inquiry: Record: F1E
Reply text: 3.94

Inquiry: Record: E4F
Reply text: 1.65

Inquiry: Record: F1C
Reply text: 2.5

Inquiry: Record: R11N
Reply text: 1.83

Inquiry: Record: V19D
Reply text: 2.48

Inquiry: Record: E17M
Reply text: 2.82

Inquiry: Record: T20G
Reply text: 1.59

Inquiry: Record: I22N
Reply text: 2.72

Inquiry: Record: E4C
Reply text: 2.56

Inquiry: Record: I13G
Reply text: 2.31

Inquiry: Record: T20S
Reply text: 2.27

Inquiry: Record: S16Y
Reply text: 2.44

Inquiry: Record: E4M
Reply text: 1.91

Inquiry: Record: V23K
Reply text: 2.06
